tested on: COR-L23 cells; experiment: Cell proliferation assay (MTT), COR-L23 parental; assay type: cell-based; conditions: Homo sapiens, 96 h, 4-day incubation, mean ± SE of at least two experiments, read-out: Sensitivity to cell killing, IC50
METRIC_NAME: IC50 (µM)
Answer with a number only, understood to be in µM.

[ask] Supply reported IC50 belonging to this compound: COc1cccc2c1C(=O)c1c(O)c3c(c(O)c1C2=O)C[C@@](O)(C(=O)CO)C[C@@H]3O[C@H]1C[C@H](N)[C@H](O)[C@H](C)O1
[reply] 0.0366

* * *

tested on: K562A7 parental leukemia cells; test: Cell proliferation assay (MTS/PMS), K562A7 parental; format: cell-based; conditions: Homo sapiens, 96 h, 4-day incubation, mean ± SE of at least two experiments, read-out: Sensitivity to cell killing, IC50
METRIC_NAME: pIC50
Notebook: values listed as pIC50 are -log10 of the concentration (mol/L).

[ask] Output measured pIC50 for this item: COc1cccc2c1C(=O)c1c(O)c3c(c(O)c1C2=O)C[C@@](O)(C(=O)CO)C[C@@H]3O[C@H]1C[C@H](N)[C@H](O)[C@H](C)O1 [Adriamycin, adriamycin]
[reply] 7.57
